Tested on: Escherichia coli TOP10;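 further: peptides expressed intracellularly from a pBAD plasmid library in pooled LB shake-flask culture, induced with 0.3% L-arabinose, DNA abundance read by NGS, three biological replicates, DESeq2 with apeglm shrinkage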
Assay: shrunken log2 fold change of peptide-encoding DNA abundance (4.5 h post-induction vs induction); higher = less antimicrobial activity (less host growth inhibition)
Conditions: time post-induction: 4.5 h; library: site-saturation at positions 5, 18, 19, 20
ASSAY_METRIC: shrunken log2 fold change

*Q* Recall and state the measured shrunken log2 fold change for RRIRMRPPRLPRPRPRPKSTPRP .
*A* 1.44

*Q* Give shrunken log2 fold change for the following sequence: RRIRERPPRLPRPRPRPKPAPRP
*A* 0.666

*Q* Identify the reported shrunken log2 fold change for the following entry. RRIRWRPPRLPRPRPRPTDPPRP
*A* 0.374

*Q* Could you please provide reported shrunken log2 fold change for RRIRLRPPRLPRPRPRPMEFPRP ? Thanks!
*A* -0.00133

*Q* Supply reported shrunken log2 fold change belonging to this sequence: RRIRFRPPRLPRPRPRPPMHPRP
*A* 0.162

*Q* Please list shrunken log2 fold change recorded for the sequence RRIRRRPPRLPRPRPRPGWKPRP
*A* 0.136

*Q* Please list shrunken log2 fold change recorded for the sequence RRIRMRPPRLPRPRPRPDTHPRP
*A* 0.18

*Q* Given the sequence RRIRGRPPRLPRPRPRPHQGPRP , write its reported shrunken log2 fold change.
*A* -0.0236

*Q* For RRIRWRPPRLPRPRPRPARCPRP , write its shrunken log2 fold change.
*A* 0.209

*Q* Answer with the recorded shrunken log2 fold change of RRIRARPPRLPRPRPRPALDPRP only.
*A* 0.756

*Q* Note shrunken log2 fold change for the sequence shown: RRIRERPPRLPRPRPRPDTHPRP
*A* -0.532

*Q* Give the reported value of shrunken log2 fold change for this record: RRIRTRPPRLPRPRPRPFVCPRP
*A* -0.374

*Q* Give a short answer stating reported shrunken log2 fold change for RRIRMRPPRLPRPRPRPNWEPRP .
*A* 0.0757

*Q* Return reported shrunken log2 fold change. Input sequence: RRIRTRPPRLPRPRPRPWHNPRP
*A* -0.0242

*Q* Return the recorded shrunken log2 fold change value; entry: RRIRNRPPRLPRPRPRPKQSPRP
*A* -0.135

*Q* Give reported shrunken log2 fold change value for RRIRPRPPRLPRPRPRPAHSPRP
*A* -0.00917

*Q* Recall and state the measured shrunken log2 fold change for RRIRTRPPRLPRPRPRPVNAPRP .
*A* -0.189

*Q* Kindly indicate its recorded shrunken log2 fold change. Item: RRIRMRPPRLPRPRPRPAYLPRP
*A* 0.0142

*Q* Hello, please tell me recorded shrunken log2 fold change for this one: RRIRTRPPRLPRPRPRPNNDPRP
*A* -0.797

*Q* Indicate the recorded shrunken log2 fold change value for this sequence: RRIRMRPPRLPRPRPRPGKVPRP
*A* 0.101

*Q* Note shrunken log2 fold change for the sequence shown: RRIRPRPPRLPRPRPRPWIAPRP
*A* 0.0544

*Q* Provide only the value of recorded shrunken log2 fold change for RRIRRRPPRLPRPRPRPYVDPRP
*A* -0.102

*Q* Give recorded shrunken log2 fold change. RRIRHRPPRLPRPRPRPRHCPRP
*A* 0.03

*Q* Retrieve shrunken log2 fold change measured for RRIRWRPPRLPRPRPRPTGDPRP and print it.
*A* 0.241

*Q* Name the recorded shrunken log2 fold change of the sequence listed here: RRIRWRPPRLPRPRPRPDDVPRP
*A* 0.0399

*Q* Name the recorded shrunken log2 fold change of the item RRIRLRPPRLPRPRPRPLMLPRP in your answer.
*A* -0.257

*Q* Supply reported shrunken log2 fold change belonging to this sequence: RRIRSRPPRLPRPRPRPDFCPRP
*A* 0.0315

*Q* Supply shrunken log2 fold change value. Item: RRIRGRPPRLPRPRPRPNWNPRP
*A* -0.00809

*Q* Using the record for RRIRIRPPRLPRPRPRPIIIPRP , state its measured shrunken log2 fold change.
*A* -0.598

*Q* Answer with the recorded shrunken log2 fold change for the sequence listed here: RRIRVRPPRLPRPRPRPNKFPRP
*A* -0.255

*Q* Complete the entry with shrunken log2 fold change for RRIRTRPPRLPRPRPRPPVIPRP
*A* 0.213

*Q* For the sequence RRIRIRPPRLPRPRPRPFEMPRP , give its reported shrunken log2 fold change.
*A* -0.22
